Sourced from the supplement of paper PMC10883282

System: SYO-1
Experiment: relative viability vs DMSO control (72 h) (fraction); higher = more viable cells
Settings: 3.333 µM
Catalogue of relative viability values
Number only, please.

Some entries whose results are on file:
>>> df
                                   compound  quantitativeresult
0  COc1cc2ncnc(Nc3cccc(Cl)c3F)c2cc1OC(=O)N1CCN(C)C[C@H]1C [AZD-3759]               0.783
1  CNC(=O)c1cc(Oc2ccc(NC(=O)Nc3ccc(Cl)c(C(F)(F)F)c3)cc2)ccn1 [Sorafenib]               0.509
2  NC(=O)c1cnc2[nH]ccc2c1N[C@@H]1[C@@H]2CC3C[C@H]1C[C@@](O)(C3)C2 [Peficitinib]                0.56
3  CN(C)C[C@@H]1CCn2cc(c3ccccc32)C2=C(C(=O)NC2=O)c2cn(c3ccccc23)CCO1 [Ruboxistaurin]               0.347

What value of relative viability has been recorded for this entry: CCN(CCCOc1ccc2c(Nc3cc(CC(=O)Nc4cccc(F)c4)[nH]n3)ncnc2c1)CCOP(=O)(O)O [Barasertib] 0.284
